As shown below, each of these molecules has a reported IC50 value.
# Test system: L6
# Assay text: Cytotoxicity against rat L6 cells after 70 hrs by alamar blue assay
# Format: cell-based
# Applied conditions: L6, 70 h

Request: Which IC50 value belongs to COc1cc(C(=N)N)ccc1-n1cc(-c2cccc(C(=N)N)c2)nn1.Cl.Cl ?
Response: > 192 µM

Request: Which IC50 value belongs to Oc1ccc(C2=NCCN2)cc1-n1cc(-c2cccc(C3=NCCN3)c2)nn1 ?
Response: > 174 µM

Request: Which IC50 value belongs to CC(C)NC(=N)c1ccc(-c2cn(-c3cccc(C(=N)NC(C)C)c3)nn2)cc1 ?
Response: 193 µM

Request: Which IC50 value belongs to COc1ccc(C(=N)NC(C)C)cc1-c1cn(-c2cccc(C(=N)NC(C)C)c2)nn1 ?
Response: > 176 µM

Request: Which IC50 value belongs to COc1cc(C(=N)NC(C)C)ccc1-c1cn(-c2ccc(C(=N)NC(C)C)cc2)nn1 ?
Response: > 166 µM

Request: Which IC50 value belongs to c1cc(C2=NCCN2)cc(-c2cn(-c3cccc(C4=NCCN4)c3)nn2)c1 ?
Response: > 197 µM

###

# Assay text: Selectivity index, ratio of IC50 for rat L6 cells to IC50 for Plasmodium falciparum K1
# Type: toxicity, cell-based
# Applied conditions: read-out: Ratio IC50
Readout type: selectivity ratio

Request: Which selectivity ratio value belongs to Oc1cc(C2=NCCN2)ccc1-n1cc(-c2ccc(C3=NCCN3)cc2)nn1 ?
Response: > 4830

Request: Which selectivity ratio value belongs to Oc1ccc(C2=NCCN2)cc1-n1cc(-c2ccc(C3=NCCN3)cc2)nn1 ?
Response: > 198

Request: Which selectivity ratio value belongs to COc1cc(C(=N)N)ccc1-n1cc(-c2cccc(C(=N)N)c2)nn1.Cl.Cl ?
Response: > 7680

###

As shown below, each of these compounds has a reported IC50 value.
# System: Trypanosoma brucei rhodesiense
# Assay text: Antitrypanosomal activity against Trypanosoma brucei rhodesiense STIB900 after 70 hrs by alamar blue assay
# Format: functional, organism-based
# Applied conditions: STIB900, 70 h
The figure you give is taken to be in nM; do not add the unit.

Worked examples follow.
item_smiles=COc1cc(C(=N)NC(C)C)ccc1-c1cn(-c2ccc(C(=N)NC(C)C)cc2)nn1 units_of_measure=nM test_value=201
item_smiles=CC(C)NC(=N)c1cccc(-c2cn(-c3cc(C(=N)NC(C)C)ccc3O)nn2)c1 units_of_measure=nM test_value=13900
item_smiles=N=C(N)c1ccc(-c2cn(-c3ccc(C(=N)N)cc3O)nn2)cc1 units_of_measure=nM test_value=501
item_smiles=Cl.Cl.N=C(N)c1ccc(-c2cn(-c3cccc(C(=N)N)c3)nn2)cc1 units_of_measure=nM test_value=6

Now for a further compound.
Request: Identify the measured IC50 of COc1ccc(C2=NCCN2)cc1-c1cn(-c2ccc(C3=NCCN3)cc2)nn1.Cl.Cl for Trypanosoma brucei rhodesiense.
Response: 21

###

# System: Leishmania donovani
# Assay text: Antileishmanial activity against Leishmania donovani MHOM/SD/62/1S-CL2D
# Format: functional, organism-based
pIC50: −log10 of the molar value.
As shown below, each of these compounds has a reported pIC50 value.

Request: Which pIC50 value belongs to Oc1cc(C2=NCCN2)ccc1-n1cc(-c2ccc(C3=NCCN3)cc2)nn1 ?
Response: < 4.00

Request: Which pIC50 value belongs to COc1ccc(C(=N)NC(C)C)cc1-n1cc(-c2cccc(C(=N)NC(C)C)c2)nn1 ?
Response: < 4.00

Request: Which pIC50 value belongs to COc1ccc(C2=NCCN2)cc1-n1cc(-c2ccc(C3=NCCN3)cc2)nn1 ?
Response: < 4.00

###

# Assay text: Selectivity index, ratio of IC50 for rat L6 cells to IC50 for Trypanosoma brucei rhodesiense STIB900
# Type: toxicity, cell-based
# Applied conditions: read-out: Ratio IC50
Readout type: selectivity ratio
Provide a numeric answer; units are not to be included.

Worked examples follow.
item_smiles=COc1cc(C(=N)N)ccc1-c1cn(-c2ccc(C(=N)N)cc2)nn1.Cl.Cl readout_type="selectivity ratio" test_value=1920
item_smiles=c1cc(C2=NCCN2)cc(-c2cn(-c3ccc(C4=NCCN4)cc3)nn2)c1 readout_type="selectivity ratio" test_value=635

Request: Which selectivity ratio value belongs to COc1ccc(C(=N)NC(C)C)cc1-n1cc(-c2cccc(C(=N)NC(C)C)c2)nn1 ?
Response: 13

###

# Assay text: Selectivity index, ratio of IC50 for rat L6 cells to IC50 for Trypanosoma brucei rhodesiense STIB900
# Type: toxicity, cell-based
# Applied conditions: read-out: Ratio IC50
Readout type: selectivity ratio

Worked examples follow.
item_smiles=Cl.Cl.N=C(N)c1cccc(-c2cn(-c3ccc(C(=N)N)cc3O)nn2)c1 readout_type="selectivity ratio" test_value="> 1190"
item_smiles=Cl.Cl.N=C(N)c1cccc(-n2cc(-c3cc(C(=N)N)ccc3O)nn2)c1 readout_type="selectivity ratio" test_value="> 782"

Now for a further compound.
Request: Which selectivity ratio value belongs to COc1ccc(C2=NCCN2)cc1-c1cn(-c2ccc(C3=NCCN3)cc2)nn1.Cl.Cl ?
Response: > 8950
